experiment: NCI Yeast Anticancer Drug Screen. Data for the rad50EPP+ strain (AID 151);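 further: 0% = growth of vehicle-treated control cultures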
conditions used: S. cerevisiae rad50 mutant strain, at 100.0 µM, hits give high values
About 79,000 compounds went through this panel and 15% of them were active in at least one assay; those are over-represented in the sample as a whole.
measure name: growth inhibition (%)
Answers are plain numbers, in %.

Record excerpt, results attached:
compound	measure name	quantitative result
C[N+](CCCl)(CCCl)Cc1cccc2cccc([N+](=O)[O-])c12	growth inhibition	96
Cc1ccc2nc3sc(=O)sc3nc2c1	growth inhibition	95
CC[C@@]1(O)C(=O)OCc2c1cc1n(c2=O)Cc2cc3ccccc3nc2-1	growth inhibition	96

Please report growth inhibition for every entry that follows.
1. O=C(/C=C(\c1ccccc1)N1CC1)c1ccccc1
2. COC(=O)C1C2c3ccccc3C(c3ccccc32)C1C(=O)OC (stereo unspecified)
3. CNC(=O)OCC1C2=C(C(=O)C(C)=C(N)C2=O)N2CC3C(N3C)C12OC (stereo unspecified)
4. COC(=O)C1=C(C(=O)OC)SC2(S1)C(C(=O)OC)=C(C(=O)OC)Sc1c2ssc1=O

1. 86
2. 10
3. 41
4. 54

* * *

experiment: NCI Yeast Anticancer Drug Screen. Data for the rad50 strain (AID 155);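 further: 0% = growth of vehicle-only cultures of the same strain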
conditions used: S. cerevisiae rad50 strain growth inhibition; at 50.0 µM; hits give high values
About 79,000 compounds went through this panel and 15% of them were active in at least one assay; those are over-represented in the sample as a whole. Active and inactive are the calls of the source. Rule as the data show it: active = growth inhibition above about 70%; inactive = the rest.
measure name: growth inhibition

compound	result
O=[N+]([O-])c1ccccc1	79.2% (active)
N#C[S-].[Nd+3].c1ccc(-c2ccccn2)nc1.c1ccc(-c2ccccn2)nc1.c1ccc(-c2ccccn2)nc1	91.2% (active)
Oc1cccc2cccnc12 (tested in a mixture with another compound)	73.5% (active)

Please report growth inhibition for every entry that follows.
1. O=[N+]([O-])C(Br)(Br)CCC(Br)(Br)[N+](=O)[O-]
2. C/C(=N\O)C(CN(C)C)C(c1ccccc1)c1c(O)c2ccccc2oc1=O (centres undefined)
3. CCCC[CH2][Sn]([CH2]CCCC)[CH2]CCCC.CCCC[CH2][Sn]([CH2]CCCC)[CH2]CCCC
4. CS/C([S-])=N/N=C(C)C.CS/C([S-])=N/N=C(C)C.[Ni+2]
5. CC(=O)O/C(=C1\C[C@H]2[C@@H]3CC=C4C[C@@H](OC(C)=O)CC[C@]4(C)[C@H]3CC[C@]2(C)C1=O)C(F)(F)F

1: 99.5% (active); 2: 76.5% (active); 3: 99.2% (active); 4: 93.8% (active); 5: 76.1% (active)

Dear colleague, I am looking for the recorded growth inhibition of the following compound: `COc1cc2ccccc2c2cc([N+](=O)[O-])oc12` 78.2% (active)

* * *

experiment: NCI Yeast Anticancer Drug Screen. Data for the cln2 rad14 strain (AID 165);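 further: 0% = growth equal to vehicle treated cultures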
conditions used: S. cerevisiae cln2 rad14 strain, at 5.0 µM (retest, dose inferred, filed as 0.5), hits give high values
The panel holds about 79,000 compounds, 15% with a hit somewhere; the sample as a whole holds those more often.
Exercise: state measured growth inhibition for each of the molecules provided.
Numbers only, in %.

molecule	output unit	growth inhibition
[Cl][Sn]1([c]2ccccc2)[O]CCNCC[O]1	%	6

Please report growth inhibition for every entry that follows.
1. CSc1ccccc1[As](C)C
2. [Se]c1ncnc2nc[nH]c12
3. Nc1nc(CCl)cs1
4. CC1CN1C1=C(Cl)C(=O)C(N2CC2C)=C(Cl)C1=O (configuration not stated)

[27, 11, -7, -3]

Please report growth inhibition for every entry that follows.
1. O=CNc1ccccc1.[Hg]
2. CNC1=C(C)C(=O)C2=C(C1=O)C(COC(N)=O)C1(O)C3C(CN21)N3C (configuration not stated)
3. O=c1c(O)c(-c2ccccc2)oc2ccccc12.[Pb]
4. NC(=O)/C=C/C(=O)O (tested in a mixture with another compound)
5. O=C(CCCC(=O)NNC(=O)Nc1cccc(S(=O)(=O)F)c1)NNC(=O)Nc1cccc(S(=O)(=O)F)c1

[99, 9, -2, 1, -8]

Please report growth inhibition for every entry that follows.
1. C=CCC[CH2][Sn]([c]1ccccc1)([c]1ccccc1)[c]1ccccc1
2. CN(C)c1ccc(C2N(Cc3ccc(N(CCCl)CCCl)cc3Cl)CCCN2Cc2ccc(N(CCCl)CCCl)cc2Cl)cc1

98
1

* * *

experiment: NCI Yeast Anticancer Drug Screen. Data for the mgt1 strain (AID 153)
conditions used: S. cerevisiae mgt1 mutant growth inhibition; at 11.0 µM; hits give high values
About 79,000 compounds went through this panel and 15% of them were active in at least one assay; those are over-represented in the sample as a whole.
measure name: growth inhibition (%)
Answers are plain numbers, in %.

Record excerpt, results attached:
molecule	output unit	growth inhibition
Cc1c2ccccc2cc2ccccc12	%	73
O=C1c2ccc3ccccc3c2CCC1N1CCCCC1 (stereo not drawn)	%	21

Okay, next one:
Dear colleague, I am looking for the recorded growth inhibition of the following molecule: `[O-][n+]1c2cccc(O)c2[n+]([O-])c2cccc(O)c21` 8

* * *

Exercise: state measured growth inhibition for each of the molecules provided.
experiment: NCI Yeast Anticancer Drug Screen. Data for the bub3 strain (AID 167)
conditions used: S. cerevisiae bub3 mutant strain, at 5.0 µM (retest, dose inferred, filed as 0.5), hits give high values
Description: Growth inhibition of yeast strains with defined genetic alterations is measured as a screen for potential anti-cancer activity. Selected strains with alterations in DNA damage repair or cell cycle control were exposed to compounds and growth inhibition was measured relative to vehicle treated controls. The strain used in this assay is bub3
About 79,000 compounds went through this panel and 15% of them were active in at least one assay; those are over-represented in the sample as a whole.
Answers are plain numbers, in %.

molecule	growth inhibition, %
CSc1ccc(NC(=O)C2c3[nH]c4ccccc4c3C3CCC(C(C)(C)C)CC3C2C(=O)O)cc1 (stereo not given)	-8
O=[N+]([O-])O.[NH-]C1CCCCC1[NH-].[NH-]C1CCCCC1[NH-].[NH-]C1CCCCC1[NH-].[OH-].[OH-].[OH-].[Pt+4].[Pt+4].[Pt+4] (stereo not given)	20
CCOCCOC(=O)Cc1ccccc1	7
CCOP(=O)(O)C(Nc1ccc(N=Nc2ccccc2)cc1)c1cccc(C(Nc2ccc(N=Nc3ccccc3)cc2)P(=O)(O)OCC)c1 (stereo not given)	4
CN1CN(c2ccccc2)C2(CCN(C3Nc4ccccc4O3)CC2)C1=O (stereo not given)	-16

Please report growth inhibition for every entry that follows.
1. NP(N)(=O)Nc1ccccc1
2. CCC[CH2][Sn][Cl]
3. C[n+]1[se]nc2cc(C(=O)c3ccccc3)ccc21 (tested in a mixture with another compound)

1. 2
2. 99
3. 98

* * *

experiment: NCI Yeast Anticancer Drug Screen. Data for the rad50 strain (AID 155);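 further: 0% = growth of vehicle-only cultures of the same strain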
conditions used: S. cerevisiae rad50 strain growth inhibition; at 50.0 µM
Description: Growth inhibition of yeast strains with defined genetic alterations is measured as a screen for potential anti-cancer activity. Selected strains with alterations in DNA damage repair or cell cycle control were exposed to compounds and growth inhibition was measured relative to vehicle treated controls. The strain used in this assay is rad50
About 79,000 compounds went through this panel and 15% of them were active in at least one assay; those are over-represented in the sample as a whole. The source made the active and inactive calls. No stated cut-off is given here; in the data, active means growth inhibition above about 70%; inactive means the rest.
Give your call using only these classes: active, inactive

molecule	assigned class
CC[C@@]1(O)C(=O)OCc2c1cc1n(c2=O)Cc2cc3ccccc3nc2-1	active
O=C(COc1ccc(Cl)c(Cl)c1)N(Cc1ccccc1)Cc1ccc[n+](Cc2ccc(Cl)cc2S(=O)(=O)F)c1	inactive
C1CC[N-]CC1.[Cl][Au]([Cl])[Cl]	active
CC[C@](C)(O)C(=O)O[C@H]1C(=O)O[C@@H]2C[C@H]3C(C)=CC(=O)[C@@H](O)[C@]3(C)[C@H]3[C@@]4(O)OC[C@]32[C@@H]1[C@@H](C)[C@H]4O	inactive
CCOC(=O)/C(=C\c1ccc(C(=O)OC)cc1)[Se]c1ccccc1	active

Please indicate how the test categorized `Oc1cccnc1[Se]` . active

Please indicate how the test categorized CCCCCCCCCCCCCCCCP(=O)(O)OCC(N)C(=O)O (centres undefined) . inactive

Please indicate how the test categorized `[O-][n+]1c2cccc(O)c2[n+]([O-])c2cccc(O)c21` . active

Please indicate how the test categorized `O=[N+]([O-])[O-].O=[N+]([O-])[O-].[Au].[Au].c1ccc([P-]c2ccccc2)cc1.c1ccc([P-]c2ccccc2)cc1` . active

* * *

Exercise: state measured growth inhibition for each of the compounds provided.
experiment: NCI Yeast Anticancer Drug Screen. Data for the mec2-1 strain (AID 157)
conditions used: S. cerevisiae mec2-1 strain, at 33.0 µM, hits give high values
About 79,000 compounds went through this panel and 15% of them were active in at least one assay; those are over-represented in the sample as a whole. Active and inactive are the calls of the source. No stated cut-off is given here; in the data, active means growth inhibition above about 70%; inactive means the rest.

Record excerpt, results attached:
compound	growth inhibition
[N-]=[N+]=C1C(Cl)=C(Cl)C(Cl)=C1Cl	99% (active)
CCN(CCCl)c1cc(CN(C)C)cc(NC(=O)c2ccc(C(=O)Nc3cc(CN(C)C)cc(N(CC)CCCl)c3)cc2)c1	8% (inactive)
CC(=O)O/C(=C1\C[C@H]2[C@@H]3CC=C4C[C@@H](OC(C)=O)CC[C@]4(C)[C@H]3CC[C@]2(C)C1=O)C(F)(F)F	5% (inactive)
CCNC(=O)OCC1C2=C(C(=O)C(C)=C(N)C2=O)N2CC3C(N3C)C12OC (stereo not given)	58% (inactive)
Cc1nc2ccccc2cc1C[N+]12CN3CN(CN(C3)C1)C2	10% (inactive)

Please report growth inhibition for every entry that follows.
1. CC(C)(C)c1cc([N+](=O)[O-])cc([N+](=O)[O-])c1O
2. O=C(O)c1ccccc1.[Ag]
3. CCCN(CCC)c1c([N+](=O)[O-])cc(S(N)(=O)=O)cc1[N+](=O)[O-]
4. O=C1NC(=S)NC(=O)C1=Cc1ccc([N+](=O)[O-])o1

1: -8% (inactive); 2: 99% (active); 3: 32% (inactive); 4: 0% (inactive)

Dear colleague, I am looking for the recorded growth inhibition of the following compound: `CC[C@@]1(O)C(=O)OCc2c1cc1n(c2=O)Cc2cc3ccccc3nc2-1` 98% (active)
